Exercise: for every item that follows, state its recorded IC (TGI).
- Test system: SK-BR-3
- method: Inhibition of cells growth by colorimetric assay (SRB)
- assay.context: Homo sapiens, SK-BR-3, 48 h, read-out: SK-BR3 TGI
One number for each entry, in µM.

compound	unit.abbreviation	IC (TGI)
COc1cc2c(cc1O)CCN[C@]21CS[C@@H]2c3c(OC(C)=O)c(C)c4c(c3[C@H](COC1=O)N1C[C@@H]3Cc5cc(C)c(OC)c(O)c5C(C21)N3C)OCO4 (stereo partly shown)	µM	3.15
C=CCN1[C@@H]2c3c(cc(C)c(OC)c3O)C[C@H]1[C@H](C#N)N1C2[C@@H]2SC[C@]3(NCCc4cc(OC(=O)OC(C)(C)C)c(OC)cc43)C(=O)OC[C@H]1c1c3c(c(C)c(OC(C)=O)c12)OCO3 (stereo partly shown)	µM	0.0119
COc1c(C)cc2c(c1O)[C@H]1N[C@@H](C2)[C@H](O)N2C1[C@@H]1SC[C@]3(NCCc4c3[nH]c3ccc(O)cc43)C(=O)OC[C@H]2c2c3c(c(C)c(OC(C)=O)c21)OCO3 (stereo partly shown)	µM	0.00766
C=CCN1[C@@H]2c3c(cc(C)c(OC)c3O)C[C@H]1[C@H](O)N1C2[C@@H]2SCC(NC(C)=O)C(=O)OC[C@H]1c1c3c(c(C)c(OC(C)=O)c12)OCO3 (stereo partly shown)	µM	0.0722
C=CCN1[C@@H]2c3c(cc(C)c(OC)c3O)C[C@H]1[C@H](C#N)N1C2[C@@H]2SC[C@]3(NCCc4cc(OC(=O)OC(C)(C)C)c(OC)cc43)C(=O)OC[C@H]1c1c3c(c(C)c(O)c12)OCO3 (stereo partly shown)	µM	0.0532
COc1ccc2[nH]c3c(c2c1)CCN[C@]31CS[C@@H]2c3c(OC(C)=O)c(C)c4c(c3[C@H](COC1=O)N1C2[C@@H]2N[C@@H](Cc3cc(C)c(OC)c(O)c32)[C@@H]1C#N)OCO4 (stereo partly shown)	µM	0.00122

Parameter requested: IC (TGI). Apply to each item below.
1. COc1c(C)cc2c(c1OC(=O)/C=C/c1ccccc1)[C@H]1N[C@@H](C2)[C@H](O)N2C1[C@@H]1SCC(NC(=O)C(F)(F)F)C(=O)OC[C@H]2c2c3c(c(C)c(OC(C)=O)c21)OCO3 (stereo partly shown)
2. COc1cc2c(cc1O)CCN[C@]21CS[C@@H]2c3c(O)c(C)c4c(c3[C@H](COC1=O)N1C2[C@@H]2N[C@@H](Cc3cc(C)c(OC)c(O)c32)[C@@H]1O)OCO4 (stereo partly shown)
3. C=CCN1[C@@H]2c3c(cc(C)c(OC)c3OC(=O)OC(C)(C)C)C[C@H]1[C@H](C#N)N1C2[C@@H]2SC[C@]3(NCCc4cc(OC(=O)OC(C)(C)C)c(OC)cc43)C(=O)OC[C@H]1c1c3c(c(C)c(OC(C)=O)c12)OCO3 (stereo partly shown)
4. COc1cc2c(cc1O)CCN[C@]21CS[C@@H]2c3c(OC(=O)/C=C/c4ccccc4)c(C)c4c(c3[C@H](COC1=O)N1C2[C@@H]2N[C@@H](Cc3cc(C)c(OC)c(O)c32)[C@@H]1C#N)OCO4 (stereo partly shown)

## Output
0.0976
0.153
0.00756
0.344
